Cited source for all entries: the RNAGym collection of RNA variant scans (doi:10.7554/elife.80360)

B1: CPEB3 Ribozyme (parent)
chain: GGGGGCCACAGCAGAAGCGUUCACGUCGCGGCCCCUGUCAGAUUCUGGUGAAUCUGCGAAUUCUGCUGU

Variants of: B1
Assay procedure: self-cleavage, relative activity (ratio to wild type); higher = more cleavage; co-transcriptional
Note to self: class labels come from recorded self-cleavage, ranges listed here: class 0 = under 0.2, class 1 = from 0.2 up to 0.7, class 2 = 0.7 and over

Seq string | Answer label
GGGGGCCACAGCAGAAGCGUUCACGUCGCGGCCCCUGUCAGAUUCUGAUGAAUCUGCGACUUCUGCUGU [G48A A60C] | class 1
GGGGGCCACAGCAGAAGCGUUCAGGUCGCGGCCCCUGUCAGAUUCUGGUGAAUCUGCGAAUUCUACUGU [C24G G65A] | class 1
GGGGGCCCCAGCAGAAGCGUUCACGUCGCGGCCCUUGUCAGAUUCUGGUGAAUCUGCGAAUUCUGCUGU [A8C C35U] | class 2
GGGGGCCACAGCAGAAGCGUUCACGUCGCGGCCCCUGUCAGAUUCUGGUGAAUCUGAGAAUUAUGCUGU [C57A C63A] | class 1
GGGGGCCACAGAAGAAGCGUUCACGUCGCGGCCCCUGUCAGAUUCUGGAGAAUCUGCGAAUUCUGCUGU [C12A U49A] | class 2

Hello team, could you let me know which band the following variant falls into: GGGGGCCACAGCAGAAGCGUUCACGUCGGGGCCCAUGUCAGAUUCUGGUGAAUCUGCGAAUUCUGCUGU [C29G C35A]
class 1

How about GUGGGCUACAGCAGAAGCGUUCACGUCGCGGCCCCUGUCAGAUUCUGGUGAAUCUGCGAAUUCUGCUGU [G2U C7U] ?
class 0

How about GGGGGCCACAGCAGAAGCGUUCACGUCGCGGCCCCUGUCAGACUCUGGUGAAUCUGCGAAUUCUGCUUU [U43C G68U] ?
class 2

How about GGGGGCCACAGCAUAAGCGUUCACGUCGCGGCCCCAGUCAGAUUCUGGUGAAUCUGCGAAUUCUGCUGU [G14U U36A] ?
class 0

How about GAGGGCCACAGCAGAAGCGUUCACGUCGCGGCCCCUGUCAGAUUCUGGUGAAGCUGCGAAUUCUGCUGU [G2A U53G] ?
class 0

How about GGUGGCCACAGCAGAGGCGUUCACGUCGCGGCCCCUGUCAGAUUCUGGUGAAUCUGCGAAUUCUGCUGU [G3U A16G] ?
class 0

How about GGGGGCCACAGCAGAAGCGUUCACGUCGCGGCCCCUGUCAGAUACUGGUGAAUCUGCGAAUUCUGCUAU [U44A G68A] ?
class 2
